- assayTarget: Recombinant soluble trimeric human BAFF (furin-cleaved human BAFF 134-285) (human, UniProt Q9Y275 134-285)
- methodSummary: cell-based or functional assay
propertyLabel: Soluble trimeric huBAFF (50 pM) Neutralization IC90

{"binder": "409F12A11 (antibody, V domains shown) VH: IQLQQSGPELVKPGASMKISCKASGYTFTDKYINWVKQRPGQGLEWIGWIYPGSGNTKYNEKFKGMATLTVDTSSNTAYIHLSSLTSEDSAVYFCARGIIYYYDGSYPYALDYWGQGTSVTVSS VL: DIVLTQSPASLALSLGQRATISCRATKGVSKSGYSYMHWYQQKPGQPPKLLIYLASNLESGVPARFSGSGSGTDFTLNIHPVEEEDVATYYCQHSRELPLTFGAGTKLELK", "result": "390 pM"}
{"binder": "443C11A12 (antibody, V domains shown) VH: EVQLQQSGPELVKPGASVKMSCTASGYTFTSYVIHWMKQKPGQGLEWIGYLHRNNDGTKYNEKFKVKATLTSDESSNTAYMELSSLTSEDSAVYYCARGDYSNYFYWYFDVWGAGTTVSVSS VL: DIKMTPSPSSMYASLGERVTITCKASQDINSYLSWFQQKPGKSPKTLIYRANRLVDGVPSRFSGSGSGQDYSLTISSLEYEDMGIYYCLQYDEFPYTSGGGTKLEIK", "result": "309 pM"}
{"binder": "537G7A6 (antibody, V domains shown) VH: QVQLKESGPGLVAPSQSLSITCTVSGFSLSRYSVHWIRQSPGKGLEWLGMIWGGGNTDYNSGLKSRLSISKDNSKSQVFLKMNSLENDDTAMYYCASPSLYYYDVAWFPYWGQGTLVTVSA VL: DIVLTQSPASLAVSVGQRATVSCRVSESVDRYADSFMHWYQQKPGQPPKLLIYLASNLESGVPARFSGSGSRTDFTLTIDPVEADDAATYYCQQNKEDPYTFGGGTKLELK", "result": "329 pM"}
{"binder": "441E6F2 (antibody, V domains shown) VH: RVQLKESGPGLVAPSQSLFITCTVSGFSLTTYEINWVRQSPGKGLEWLGVIWTGGTTKYNSAFISRLSITKDNSKSLVFLKMSSLQTDDTAIYYCVREGRRYYAMDYWGQGTSVTVSS VL: NIVLTQSPASLAVSLGQRATISCRTSESVDSYGNSFMFWFQQKPGQAPKLLIFLTSNLESGVPARFSGSGSRTDFTLTIDPVEADDAATYYCQQSNEDPRTFGGGTKLEIK", "result": "293 pM"}
{"binder": "Reference 1 (antibody, human IgG4 S228P, kappa, V domains shown, Comparator anti-BAFF antibody) VH: QVQLQQWGAGLLKPSETLSLTCAVYGGSFSGYYWSWIRQPPGKGLEWIGEINHSGSTNYNPSLKSRVTISVDTSKNQFSLKLSSVTAADTAVYYCARGYYDILTGYYYYFDYWGQGTLVTVSS VL: EIVLTQSPATLSLSPGERATLSCRASQSVSRYLAWYQQKPGQAPRLLIYDASNRATGIPARFSGSGSGTDSTLTISSLEPEDFAVYYCQQRSNWPRTFGQGTKVEIKR", "result": "290 pM"}
{"binder": "606H7F8 (antibody, V domains shown) VH: VQLVESGGGLVKPGGSLKLSCAASGFTFSSYDMSWVRQTPEKRLEWVAAINSYGVNTYYPDTVKDRFTISRDNAKNTLYLQMSSLRSEDTALYYCARLLIGPYYYAMDYWGQGTSVTVSS VL: DIQMTQSPASLSASVGETVTITCRASGNIHNYLAWYQQKQGKSPQLLVYNAKTLADGVPSRFSGSGSGTQFSLKINSLQPEDFGSYYCQHFWSTPYTFGGGTKLEIK", "result": "378 pM"}
{"binder": "418F6D9 (antibody, V domains shown) VH: QVQLQQSGPELVKPGASVKLSCKASGYTFTDYSIHWVKQSPGQGLEWIGWIYPGSGNTKYNDKFKGKATMTADKSSRTVYMQLSSLTSEESAVYFCARDYRRYYAIDYWGQGTSVTVSS VL: IVLTQSSASLAVSLGQRATISCRASESVDSYGNSLMHWYQQKPGQPPKLLIYIASNLESGVPARFSGSGSRTDFTLTIDPVEADDAATYYCQQNSEDPRTFGGGTKLEIK", "result": "491 pM"}
